Published pKi for Adenosine receptor A3 (Homo sapiens, UniProt P0DMS8), assembled from different documents, is shown next.
pKi: −log10 of the molar value.
readout: pKi

> print(dat)
                                    compound  value.qualifier  numeric.value
 1  Cc1cc(-c2c(-c3cccc(C#N)c3)nn3ccc(C(=O)NC4(C)CCNC4)nc23)cc(Cl)n1 (stereo not shown)                <           6.00
 2  N#Cc1cccc(-c2nn3ccc(N4CCN(CCF)CC4)nc3c2C#N)c1                <           6.00
 3   Cc1cccnc1CNc1ccn2nc(-c3ccco3)c(C#N)c2n1                =           6.73
 4             N#Cc1c(-c2ccco2)nn2ccc(N)nc12                =           5.40
 5  Cc1cc(-c2sc(NC(=O)N3CCOC[C@@H]3C)nc2-c2cccc(C#N)c2)cc(C)n1                =           6.74
 6  Cc1cc(-c2sc(NC(=O)N3CCS(=N)(=O)CC3)nc2-c2cccc(C#N)c2)cc(C(F)F)n1                =           6.59
 7  Cc1cc(-c2sc(NC(=O)N3CCN(CCO)C(=O)C3)nc2-c2cccc(C#N)c2)cc(C)n1                =           6.37
 8  CC(=O)N=S1(=O)CCN(C(=O)Nc2nc(-c3cccc(C#N)c3)c(-c3cc(C)nc(C)c3)s2)CC1                =           6.11
 9  N#Cc1c(-c2ccco2)nn2ccc(N3CCN(Cc4ccccn4)CC3)nc12                =           5.11
10  Cc1cc(-c2c(-c3cccc(C#N)c3)nn3ccc(CCC(C)(C)O)nc23)cc(Cl)n1                <           6.00
11  Cc1cc(-c2c(-c3cccc(C#N)c3)nn3ccc(N4CCOC(CCN(C)C)C4)nc23)cc(Cl)n1 (stereo not shown)                <           6.00
12   Nc1nc(NCc2cccc(O)c2)nc2sc(-c3ccco3)nc12                =           7.26
13  Cc1cc(-c2sc(NC(=O)N3CCS(=N)(=O)CC3)nc2-c2cccc(C#N)c2)cc(Cl)n1                =           6.27
14  Cc1cc(-c2c(-c3cccc(C#N)c3)nn3ccc(C(=O)N[C@H]4CC[C@@](C)(O)CC4)nc23)cc(C)n1                <           6.00
15  Cc1cc(-c2c(-c3cccc(C#N)c3)nn3ccc(N)nc23)cc(C)n1                <           6.00
16  Cc1cc(-c2sc(NC(=O)N3C[C@@H]4C[C@H]3CN4)nc2-c2cccc(C#N)c2)cc(Cl)n1                =           7.51
17  Cc1cc(-c2c(-c3cccc(C#N)c3)nn3ccc(NC(=O)CC(C)(C)O)nc23)cc(Cl)n1                =           5.69
18  CO[C@H]1CN(C)C[C@@H]1NC(=O)c1ccn2nc(-c3cccc(C#N)c3)c(-c3cc(C)nc(Cl)c3)c2n1                <           6.00
19  Cc1cc(-c2sc(NC(=O)N3CC[C@H]3C(C)(C)O)nc2-c2cccc(C#N)c2)cc(C)n1                =           6.61
20  C[C@@H]1CN(c2ccn3nc(-c4ccco4)c(C#N)c3n2)CCN1C(=O)OC(C)(C)C                =           5.54
21  CO[C@H]1CN(C)C[C@@H]1Nc1ccn2nc(-c3cccc(C#N)c3)c(-c3cc(C)nc(Cl)c3)c2n1                <           6.00
22  CC(=O)N1C[C@H]2C[C@@H]1CN2C(=O)Nc1nc(-c2cccc(C#N)c2)c(-c2cc(C)nc(C)c2)s1                =           6.07
23  Cc1cc(-c2c(-c3cccc(C#N)c3)nn3ccc(C(=O)N4CCC5(CC4)NC(=O)NC5=O)nc23)cc(C)n1                <           6.00
24  Cc1cc(-c2c(-c3cccc(C#N)c3)nn3ccc(OCC(C)(C)O)nc23)cc(Cl)n1                =           5.72
25  Cc1cc(-c2sc(NC(=O)N3CC[C@H](C#N)C3)nc2-c2cccc(C#N)c2)cc(C)n1                =           6.74
26  N#Cc1cccc(-c2nn3ccc(NCCN4CCN(c5ccccc5)CC4)nc3c2C#N)c1                <           6.00
27  Cc1cc(-c2sc(NC(=O)N3C[C@@H]4CNC(=O)[C@@H]4C3)nc2-c2cccc(C#N)c2)cc(C)n1                =           6.62
28  Cc1cc(-c2c(-c3cccc(C#N)c3)nn3ccc(C(=O)NC(C)(C)C)nc23)cc(Cl)n1                <           6.00
29  N#Cc1cccc(-c2nn3ccc(NCc4ccccc4)nc3c2C#N)c1                <           6.00
30  COCC(C)(C#N)NC(=O)c1ccn2nc(-c3cccc(C#N)c3)c(-c3cc(C)nc(Cl)c3)c2n1 (stereo not shown)                =           6.42
31  Cc1cc(-c2c(-c3cccc(C#N)c3)nn3ccc(C(=O)NS(C)(=O)=O)nc23)cc(Cl)n1                =           5.59

---

Published Ki for Adenosine receptor A3 (Homo sapiens, UniProt P0DMS8), assembled from different documents, is shown next.
readout: Ki (nM)

> print(dat)
                                    compound  readout  value.qualifier  numeric.value
 1       Nc1nc(NCc2cccs2)nc2sc(-c3ccco3)nc12       Ki                =           6.43
 2  Cc1cc(-c2c(-c3cccc(C#N)c3)nn3ccc(C(=N)N)nc23)cc(C)n1       Ki                >           1000
 3  Cc1cc(-c2c(-c3cccc(C#N)c3)nn3ccc(NC(C)(C)C)nc23)cc(Cl)n1       Ki                >           1000
 4  Cc1cccnc1CN1CCN(c2ccn3nc(-c4ccco4)c(C#N)c3n2)CC1       Ki                =           2120
 5  Cc1cc(-c2c(-c3cccc(C#N)c3)nn3ccc(N[C@H]4CCOC4)nc23)cc(Cl)n1       Ki                >           1000
 6      N#Cc1c(-c2ccco2)nn2ccc(N3CCNCC3)nc12       Ki                =           5140
 7  Cc1cc(-c2sc(NC(=O)N3CCN(C)CC3)nc2-c2cccc(C#N)c2)cc(Cl)n1       Ki                =            481
 8  Cc1cc(-c2c(-c3cccc(C#N)c3)nn3ccc(NC[C@H]4COCCN4)nc23)cc(Cl)n1       Ki                >           1000
 9  Cc1cc(-c2sc(NC(=O)N3CC4(COC4)C3)nc2-c2cccc(C#N)c2)cc(C(F)F)n1       Ki                =            250
10  Cn1cc(-c2c(-c3ccco3)nn3ccc(NCc4ccccc4)nc23)cn1       Ki                =            618
11  CCn1c(=O)c2c(C)c(CN3CCNC3=O)sc2n(CC2CCO2)c1=O (single isomer, unassigned; enantiomer 1)       Ki                =           6800
12  Cc1cc(-c2c(-c3cccc(C#N)c3)nn3ccc(C(=O)NCC(C)(O)CO)nc23)cc(C)n1 (centres unmarked)       Ki                >           1000
13  Cc1cc(-c2c(-c3cccc(C#N)c3)nn3ccc(NC45CC(O)(C4)C5)nc23)cc(Cl)n1       Ki                >           1000
14  Cc1cc(-c2c(-c3cccc(C#N)c3)nn3ccc(N)nc23)cc(C(N)=O)n1       Ki                >           1000
15  Cc1cc(-c2sc(NC(=O)N3CCC(c4ncno4)CC3)nc2-c2cccc(C#N)c2)cc(C)n1       Ki                =            186
16  Cc1cc(-c2c(-c3cccc(C#N)c3)nn3ccc(N[C@@H]4CCNC4)nc23)cc(Cl)n1       Ki                >           1000
17  Cc1cc(-c2sc(NC(=O)N3CC(C)(O)C3)nc2-c2cccc(C#N)c2)cc(C)n1       Ki                =            133
18  Cc1cc(-c2sc(NC(=O)N3CCC4(CCN(C)C4=O)CC3)nc2-c2cccc(C#N)c2)cc(C)n1       Ki                =            193
19  Cc1cc(-c2sc(NC(=O)N3CCNCC3)nc2-c2cccc(C#N)c2)cc(Cl)n1       Ki                =            267
20  N#Cc1c(-c2ccco2)nn2ccc(N3CCN(CCF)CC3)nc12       Ki                >           1000
21  [2H]C([2H])([2H])c1cc(-c2sc(NC(=O)N3CCC(C)(C#N)CC3)nc2-c2cccc(C#N)c2)cc(C([2H])([2H])[2H])n1       Ki                =            381
22  Cc1cc(-c2sc(NC(=O)N3CC4(COC4)C3)nc2-c2cccc(C#N)c2)cc(Cl)n1       Ki                =            549
23  COC(C)c1cc(-c2sc(NC(=O)N3CC4(COC4)C3)nc2-c2cccc(C#N)c2)cc(C)n1 (centres unmarked)       Ki                =           2060
24  Cc1cc(-c2c(-c3cccc(C#N)c3)nn3ccc(O)nc23)cc(Cl)n1       Ki                >           1000
25  Cc1cc(-c2sc(NC(=O)N3CCCC3)nc2-c2cccc(C#N)c2)cc(Cl)n1       Ki                =           1040
26         N#Cc1c(-c2ccco2)nn2ccc(NCCCO)nc12       Ki                =           8460
27  Cc1cc(-c2c(-c3cccc(C#N)c3)nn3ccc(NC(=O)N4CCNCC4)nc23)cc(Cl)n1       Ki                >           1000
28  Cc1cccnc1CN1CCN(c2ccn3nc(-c4cnco4)c(C#N)c3n2)CC1       Ki                >           1000
29  Cc1cc(-c2c(-c3cccc(C#N)c3)nn3ccc(N[C@H](C)C(C)(C)O)nc23)cc(Cl)n1       Ki                >           1000
30  Cc1cc(-c2sc(NC(=O)N3CCN[C@@H](C(=O)O)C3)nc2-c2cccc(C#N)c2)cc(Cl)n1       Ki                =            696
31  Cc1cc(-c2c(-c3cccc(C#N)c3)nn3ccc(C(=O)NCC4(C)CCC(=O)NC4)nc23)cc(C)n1 (centres unmarked)       Ki                >           1000
32      Nc1nc(NCCc2cccs2)nc2sc(-c3ccco3)nc12       Ki                =             65
